Target: T1, Purified recombinant full length human PCSK9 with C-terminal biotinylated Avitag (human, UniProt Q8NBP7 31-692, biotin on the C-terminal Avitag)
T1 construct: also called hPCSK9; proprotein convertase subtilisin/kexin type 9; not shown: C-terminal biotinylated Avitag
T1 sequence (Q8NBP7 31-692): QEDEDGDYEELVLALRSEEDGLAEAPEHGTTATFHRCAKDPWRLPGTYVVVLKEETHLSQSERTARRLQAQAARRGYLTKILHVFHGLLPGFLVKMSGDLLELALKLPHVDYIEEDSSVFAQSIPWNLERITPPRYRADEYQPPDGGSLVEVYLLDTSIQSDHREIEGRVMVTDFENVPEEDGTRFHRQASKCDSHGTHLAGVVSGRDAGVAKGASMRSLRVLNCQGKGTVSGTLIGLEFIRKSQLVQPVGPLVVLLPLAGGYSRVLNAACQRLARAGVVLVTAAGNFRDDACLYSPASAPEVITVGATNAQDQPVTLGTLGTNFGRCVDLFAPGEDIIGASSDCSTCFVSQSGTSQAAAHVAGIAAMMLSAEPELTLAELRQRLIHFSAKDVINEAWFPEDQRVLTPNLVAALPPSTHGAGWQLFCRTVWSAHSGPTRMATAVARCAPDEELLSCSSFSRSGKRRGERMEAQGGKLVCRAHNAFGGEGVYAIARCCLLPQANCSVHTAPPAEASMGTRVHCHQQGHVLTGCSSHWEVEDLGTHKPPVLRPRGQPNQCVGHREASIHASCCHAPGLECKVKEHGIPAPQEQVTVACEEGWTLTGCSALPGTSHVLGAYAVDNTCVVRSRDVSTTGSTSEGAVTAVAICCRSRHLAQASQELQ
Assay: SPR, ProteOn XPR36; biotinylated human PCSK9 on NeutrAvidin NLC chip
Positions of bridges follow the written chain, without caps; N, C: chain ends. Non-standard residues stand in square brackets, D forms with d. Groups on a side chain read outwards from the residue. Bip = N[C@@H](Cc1ccc(-c2ccccc2)cc1)C(=O)O; int‑CC6 = not defined here; NMeA = CN[C@@H](C)C(=O)O
# Kd per entry
Answer format: value, then unit.

>>> value("{CH2CO}-FVPTT[Bip][NMeA][Bip][NMeA]EAPCGK-NH2 (other, thioether N-13; not fully specified (residue 15); also: int-DD2 linker joined by two oximes to int-CC7) [Bifunctional compound (BFC-4)]")
"4.1 nM"
>>> value("{CH2CO}-FVPTT[Bip][NMeA][Bip][NMeA]EAPCGK(4‑oxopentanoyl)-NH2 (thioether N-13, also called PCSK9 ligand (C5); PCSK9 receptor ligand compound (C5)) [Cyclic peptide (C5)]")
"1.2 nM"

Let's switch to this binder now.
Entry {CH2CO}-FVPTT[Bip][NMeA][Bip][NMeA]EAPCGK([4‑formylbenzoyl-int‑CC6])-NH2 (other, thioether N-13; reading uncertain; also: 4-formylbenzoyl joined to int-CC6 as oxime) [Bifunctional compound (BFC-2)] — recorded Kd = 9.2 nM
